Kindly supply the reported pIC50 values for the records listed here.
System: DU-145
Test: Cytotoxicity against human DU145 cells assessed as inhibition of cell viability after 48 hrs by MTT assay
Type: functional, cell-based
Details: DU-145, 48 h
Answers are plain numbers, as −log10 of the molar value.

// solved cases for pIC50 follow
Give the value of pIC50 reported for the following: O=c1[nH]cnc2c1nc(C(F)(F)F)n2[C@@H]1O[C@H](CO)[C@@H](O)[C@H]1O 3.88

Hello, please tell me recorded pIC50 for this one: Nc1nc(=O)n([C@H]2C[C@H](O)[C@@H](CO)O2)cc1C(F)(F)F 4.60

Given Nc1nc2c(nc(C(F)(F)F)n2[C@H]2C[C@H](O)[C@@H](CO)O2)c(=O)[nH]1 , respond with its pIC50. 4.14

Please look at the following compound next.
Find the measured pIC50 of Nc1ncnc2c1nc(C(F)(F)F)n2[C@H]1C[C@H](O)[C@@H](CO)O1 and report it. 4.30

###

Kindly state IC50 for each of the entries shown.
System: C6
Assay: Cytotoxicity against rat C6 cells assessed as inhibition of cell viability after 48 hrs by MTT assay
Format: functional, cell-based
Details: C6, 48 h

For each of the compounds below, state IC50.
1. Nc1ccn([C@H]2C[C@H](O)[C@@H](CO)O2)c(=O)n1 [DOXECITINE]
2. O=c1[nH]cnc2c1nc(C(F)(F)F)n2[C@@H]1O[C@H](CO)[C@@H](O)[C@H]1O
3. Nc1ncnc2c1nc(C(F)(F)F)n2[C@H]1C[C@H](O)[C@@H](CO)O1

> 250 µM
142 µM
81 µM

Give me IC50 for each of these compounds, listed below.
1. Nc1nc(O)c2ncn([C@H]3C[C@H](O)[C@@H](CO)O3)c2n1 [DEOXYGUANOSINE]
2. Nc1ncnc2c1ncn2[C@H]1C[C@H](O)[C@@H](CO)O1 [DEOXYADENOSINE]
3. O=c1[nH]cnc2c1ncn2[C@@H]1O[C@H](CO)[C@@H](O)[C@H]1O [INOSINE]
4. Nc1nc(=O)n([C@H]2C[C@H](O)[C@@H](CO)O2)cc1C(F)(F)F
5. Nc1nc2c(nc(C(F)(F)F)n2[C@H]2C[C@H](O)[C@@H](CO)O2)c(=O)[nH]1

1: > 250 µM; 2: > 250 µM; 3: > 250 µM; 4: 44 µM; 5: 92 µM

###

I'd be grateful if you could share measured IC50 for these entries.
Test system: L6
Experiment: Cytotoxicity against rat L6 cells assessed as inhibition of cell viability after 48 hrs by MTT assay
Type: cell-based
Conditions: Rattus norvegicus, L6, 48 h
Answers are plain numbers, in µM.

Provide measured IC50 value, entry: Nc1nc(=O)n([C@H]2C[C@H](O)[C@@H](CO)O2)cc1C(F)(F)F 155

Let me know recorded IC50 for Nc1nc2c(nc(C(F)(F)F)n2[C@H]2C[C@H](O)[C@@H](CO)O2)c(=O)[nH]1 , thanks. 234

Could you please provide reported IC50 for Nc1ncnc2c1nc(C(F)(F)F)n2[C@H]1C[C@H](O)[C@@H](CO)O1 ? Thanks! 225

Note: attention shifts to another entry.
For O=c1[nH]cnc2c1nc(C(F)(F)F)n2[C@@H]1O[C@H](CO)[C@@H](O)[C@H]1O , write its IC50. 195

###

System: L6
Experiment: Cytotoxicity against rat L6 cells assessed as inhibition of cell viability after 48 hrs by MTT assay
Assay type: cell-based
Details: Rattus norvegicus, L6, 48 h
Please go through the items and note down their IC50.

Please respond with reported IC50 (system L6) for Nc1ccn([C@H]2C[C@H](O)[C@@H](CO)O2)c(=O)n1 [DOXECITINE] . > 250 µM

I need IC50 for every entry listed below, if you could help.
1. Nc1nc(O)c2ncn([C@H]3C[C@H](O)[C@@H](CO)O3)c2n1 [DEOXYGUANOSINE]
2. Nc1ncnc2c1ncn2[C@H]1C[C@H](O)[C@@H](CO)O1 [DEOXYADENOSINE]
3. O=c1[nH]cnc2c1ncn2[C@@H]1O[C@H](CO)[C@@H](O)[C@H]1O [INOSINE]

["> 250 µM", "> 250 µM", "> 250 µM"]
